System: GP2d cells (KRAS G12D)
Experiment: Cell-based pERK HTRF assay in GP2d cell (Biological Example 2)
Details: GP2d, GP2d (KRAS G12D) cells, pERK HTRF; class symbols
pIC50: −log10 of the molar value.
Listed here: items and their measured pIC50.
metric-name: pIC50

molecule="CCN(c1nc(OC[C@@]23CCCN2C[C@H](F)C3)nc2c(F)c(-c3ccc(F)c4sc(N)c(C#N)c34)c(C(F)(F)F)cc12)[C@H]1CCN(C(=O)c2ccnn2C)C1 (atropisomer, axis not shown)" value_measured="> 7.00"
molecule="CCN(c1nc(OC[C@@]23CCCN2C[C@H](F)C3)nc2c(F)c(-c3ccc(F)c4sc(N)c(C#N)c34)c(C(F)(F)F)cc12)[C@H]1CCN(C(=O)OC2COC2)[C@@H]1C (atropisomer, axis not shown)" value_measured="> 7.00"

====

Molecular target: Avi-KRAS G12D (1-169) GppNHp/RAF1 RBD-3xFLAG (52-151) (Homo sapiens, UniProt P01116, G12D)
Construct: Avi-KRAS G12D (1-169)
Sequence (P01116 1-169 isoform P01116-2 G12D): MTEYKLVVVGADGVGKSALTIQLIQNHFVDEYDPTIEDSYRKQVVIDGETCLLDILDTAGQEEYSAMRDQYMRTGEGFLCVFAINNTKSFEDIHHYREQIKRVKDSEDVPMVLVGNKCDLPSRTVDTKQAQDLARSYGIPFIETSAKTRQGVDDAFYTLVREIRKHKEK
Test: Raf1-KRAS G12D-GppNHP disruption HTRF assay (Biological Example 1)
Assay type: binding
Details: KRAS G12D, GppNHp-loaded; class symbols
pIC50: −log10 of the molar value.
In this section, each of the molecules is paired with its reported pIC50.
metric-name: pIC50

molecule="CCN(c1nc(OC[C@@]23CCCN2C[C@H](F)C3)nc2c(F)c(-c3ccc(F)c4sc(N)c(C#N)c34)c(C(F)(F)F)cc12)[C@H]1CCN(C(=O)c2ccn(C)n2)C1 (atropisomer, axis not shown)" value_measured="> 7.00"
molecule="CCOC(=O)N1CC[C@H](N(CC)c2nc(OC[C@@]34CCCN3C[C@H](F)C4)nc3c(F)c(-c4ccc(F)c5sc(N)c(C#N)c45)c(C(F)(F)F)cc23)C1 (atropisomer, axis not shown)" value_measured="> 7.00"

====

Entries and their pIC50 values follow.
Molecular target: Avi-KRAS G12R (1-169) GppNHp/RAF1 RBD-3xFLAG (52-151) (Homo sapiens, UniProt P01116, G12R)
Construct: Avi-KRAS G12R (1-169)
Sequence (P01116 1-169 isoform P01116-2 G12R): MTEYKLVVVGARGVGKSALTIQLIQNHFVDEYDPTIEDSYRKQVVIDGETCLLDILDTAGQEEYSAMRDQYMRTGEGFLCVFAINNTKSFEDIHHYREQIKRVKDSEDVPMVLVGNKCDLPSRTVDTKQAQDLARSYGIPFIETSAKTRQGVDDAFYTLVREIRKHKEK
Experiment: Raf1-KRAS G12R-GppNHP disruption HTRF assay (Biological Example 1)
Type: binding
Conditions: KRAS G12R-GppNHp/RAF1 RBD HTRF
pIC50: −log10 of the molar value.
metric-name: pIC50

compound=CCN(c1nc(OC[C@@]23CCCN2C[C@H](F)C3)nc2c(F)c(-c3ccc(F)c4sc(N)c(C#N)c34)c(C(F)(F)F)cc12)[C@@H]1CCN(C(=O)OC)C1 metric_name=pIC50 value_measured="6.00 to 7.00"
compound="CCN(c1nc(OC[C@@]23CCCN2C[C@H](F)C3)nc2c(F)c(-c3ccc(F)c4sc(N)c(C#N)c34)c(C(F)(F)F)cc12)[C@H]1CCN(C(=O)C2CC(F)(F)C2)C1 (atropisomer, axis not shown)" metric_name=pIC50 value_measured="> 7.00"
compound="CCN(c1nc(OC[C@@]23CCCN2C[C@H](F)C3)nc2c(F)c(-c3ccc(F)c4sc(N)c(C#N)c34)c(C(F)(F)F)cc12)C1C[C@@H](C)N(C(=O)C2CC2)C1 (some centres unmarked)" metric_name=pIC50 value_measured="> 7.00"
compound=CC(C)C(=O)N1CC[C@](C)(N(C)c2nc(OC[C@@]34CCCN3C[C@H](F)C4)nc3c(F)c(-c4ccc(F)c5sc(N)c(C#N)c45)c(C(F)(F)F)cc23)C1 metric_name=pIC50 value_measured="5.00 to 6.00"
compound=N#Cc1c(N)sc2c(F)ccc(-c3c(C(F)(F)F)cc4c(N5CCC[C@@H](CO)C5)nc(OC[C@@]56CCCN5C[C@H](F)C6)nc4c3F)c12 metric_name=pIC50 value_measured="6.00 to 7.00"
compound=N#Cc1c(N)sc2c(F)ccc(-c3c(C(F)(F)F)cc4c(N5CCn6cnnc6C5)nc(OC[C@@]56CCCN5C[C@H](F)C6)nc4c3F)c12 metric_name=pIC50 value_measured="6.00 to 7.00"
compound="CCN(c1nc(OC[C@@]23CCCN2C[C@H](F)C3)nc2c(F)c(-c3ccc(F)c4sc(N)c(C#N)c34)c(C(F)(F)F)cc12)[C@H]1CCN(C(=O)C2CCC2)C1 (atropisomer, axis not shown)" metric_name=pIC50 value_measured="> 7.00"
compound=CCN(c1nc(OC[C@@]23CCCN2C[C@H](F)C3)nc2c(F)c(-c3ccc(F)c4sc(N)c(C#N)c34)c(C(F)(F)F)cc12)[C@@H]1CC(=O)N(C2CC2)C1 metric_name=pIC50 value_measured="> 7.00"
compound="CCN(c1nc(OC[C@@]23CCCN2C[C@H](F)C3)nc2c(F)c(-c3ccc(F)c4sc(N)c(C#N)c34)c(C(F)(F)F)cc12)[C@H]1CCN(C(=O)c2ccon2)C1 (atropisomer, axis not shown)" metric_name=pIC50 value_measured="> 7.00"
compound="CCN(c1nc(OC[C@@]23CCCN2C[C@H](F)C3)nc2c(F)c(-c3ccc(F)c4sc(N)c(C#N)c34)c(C(F)(F)F)cc12)[C@H]1CCN(C(=O)COC)C1 (atropisomer, axis not shown)" metric_name=pIC50 value_measured="> 7.00"
compound=N#Cc1c(N)sc2c(F)ccc(-c3c(C(F)(F)F)cc4c(N5CCn6nc(N7CCOCC7)cc6C5)nc(OC[C@@]56CCCN5C[C@H](F)C6)nc4c3F)c12 metric_name=pIC50 value_measured="5.00 to 6.00"
compound=N#Cc1cc2n(n1)CCN(c1nc(OC[C@@]34CCCN3C[C@H](F)C4)nc3c(F)c(-c4ccc(F)c5sc(N)c(C#N)c45)c(C(F)(F)F)cc13)C2 metric_name=pIC50 value_measured="< 5.00"
compound=CN(C)C(=O)[C@@H]1CN(c2nc(OC[C@@]34CCCN3C[C@H](F)C4)nc3c(F)c(-c4ccc(F)c5sc(N)c(C#N)c45)c(C(F)(F)F)cc23)CCO1 metric_name=pIC50 value_measured="5.00 to 6.00"
compound="CCN(c1nc(OC[C@@]23CCCN2C[C@H](F)C3)nc2c(F)c(-c3ccc(F)c4sc(N)c(C#N)c34)c(C(F)(F)F)cc12)[C@H]1CCN(C(=O)C(C)C)C1 (atropisomer, axis not shown) [Compound 468]" metric_name=pIC50 value_measured="< 5.00"
compound=CC(=O)N1CCC[C@@H](N(C)c2nc(OC[C@@]34CCCN3C[C@H](F)C4)nc3c(F)c(-c4ccc(F)c5sc(N)c(C#N)c45)c(C(F)(F)F)cc23)C1 metric_name=pIC50 value_measured="6.00 to 7.00"
compound=CN1C[C@H](N(C)c2nc(OC[C@@]34CCCN3C[C@H](F)C4)nc3c(F)c(-c4ccc(F)c5sc(N)c(C#N)c45)c(C(F)(F)F)cc23)CC1=O metric_name=pIC50 value_measured="6.00 to 7.00"
compound=CC(C)C(=O)N1CC[C@@](C)(N(C)c2nc(OC[C@@]34CCCN3C[C@H](F)C4)nc3c(F)c(-c4ccc(F)c5sc(N)c(C#N)c45)c(C(F)(F)F)cc23)[C@H]1C metric_name=pIC50 value_measured="< 5.00"
compound="CN(C)C(=O)[C@@H]1CC[C@@H](N(C)c2nc(OC[C@@]34CCCN3C[C@H](F)C4)nc3c(F)c(-c4ccc(F)c5sc(N)c(C#N)c45)c(C(F)(F)F)cc23)C1 (atropisomer, axis not shown)" metric_name=pIC50 value_measured="6.00 to 7.00"
compound=CC[C@@H]1[C@H](N(C)c2nc(OC[C@@]34CCCN3C[C@H](F)C4)nc3c(F)c(-c4ccc(F)c5sc(N)c(C#N)c45)c(C(F)(F)F)cc23)CCN1C(=O)C1CC1 metric_name=pIC50 value_measured="5.00 to 6.00"
compound=CN(C)C(=O)c1cc2n(n1)CCN(c1nc(OC[C@@]34CCCN3C[C@H](F)C4)nc3c(F)c(-c4ccc(F)c5sc(N)c(C#N)c45)c(C(F)(F)F)cc13)CC2 metric_name=pIC50 value_measured="5.00 to 6.00"

====

Biological target: Avi-KRAS G12D (1-169) GppNHp/RAF1 RBD-3xFLAG (52-151) (Homo sapiens, UniProt P01116, G12D)
Construct: Avi-KRAS G12D (1-169)
Assay: Raf1-KRAS G12D-GppNHP disruption HTRF assay (Biological Example 1)
Type: binding
Settings: KRAS G12D, GppNHp-loaded; class symbols
metric-name: IC50

compound="CCN(c1nc(OC[C@@]23CCCN2C[C@H](F)C3)nc2c(F)c(-c3ccc(F)c4sc(N)c(C#N)c34)c(C(F)(F)F)cc12)[C@H]1C[C@@H](COC)N(C(=O)N(C)C)C1 (atropisomer, axis not shown) [Compound 713]" metric_name=IC50 value_measured="100 to 1000 nM"
compound="CCN(c1nc(OC[C@@]23CCCN2C[C@H](F)C3)nc2c(F)c(-c3ccc(F)c4sc(N)c(C#N)c34)c(C(F)(F)F)cc12)C1CCN(C(=O)N2C3COCC2C3)C1 (stereo partly shown) [Compound 652]" metric_name=IC50 value_measured="< 100 nM"
compound="N#Cc1c(N)sc2c(F)ccc(-c3c(C(F)(F)F)cc4c(N5C[C@H]6[C@@H]5CCN6C(=O)C5CC5)nc(OC[C@@]56CCCN5C[C@H](F)C6)nc4c3F)c12 (atropisomer, axis not shown) [Compound 643]" metric_name=IC50 value_measured="1000 to 10000 nM"
compound="CCN(c1nc(OC[C@@]23CCCN2C[C@H](F)C3)nc2c(F)c(-c3ccc(F)c4sc(N)c(C#N)c34)c(C(F)(F)F)cc12)[C@H]1CCN(C(=O)C2CN(C(C)=O)C2)C1 (atropisomer, axis not shown) [Compound 638]" metric_name=IC50 value_measured="< 100 nM"
